Molecular target: AEA-DA lipid probe targets in Neuro2a cells (Mus musculus)
Sequence (Q9ET22 37-506): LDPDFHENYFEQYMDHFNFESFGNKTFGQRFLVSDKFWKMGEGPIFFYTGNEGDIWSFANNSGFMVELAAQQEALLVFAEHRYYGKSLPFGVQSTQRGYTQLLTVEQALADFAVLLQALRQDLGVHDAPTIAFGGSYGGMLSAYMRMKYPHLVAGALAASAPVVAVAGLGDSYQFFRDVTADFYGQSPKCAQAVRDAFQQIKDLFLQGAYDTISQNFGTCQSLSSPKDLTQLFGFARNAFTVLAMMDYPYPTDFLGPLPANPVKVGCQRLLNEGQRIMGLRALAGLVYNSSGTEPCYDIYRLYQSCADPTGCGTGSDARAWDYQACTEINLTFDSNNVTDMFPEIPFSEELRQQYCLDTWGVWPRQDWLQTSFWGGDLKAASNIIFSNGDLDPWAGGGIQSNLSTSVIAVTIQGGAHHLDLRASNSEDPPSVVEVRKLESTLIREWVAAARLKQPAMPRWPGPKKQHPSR
Conditions: competitor 25 μM
Consider the following molecules and their measured SILAC ratio Dpp7 readings.
Please respond with just the number, no unit label.

Answered examples (3):
molecule	SILAC ratio Dpp7
C=CCN(C)CCCCCCOc1ccc(C(=O)c2ccc(Br)cc2)c(F)c1 [Ro 48-8071, reference compound]	0.3
CN1CCN(C(=O)c2[nH]c3ccc([N+](=O)[O-])cc3c2-c2ccccc2)CC1	0.7
CN1CCN(C(=O)c2c(-c3ccccc3)c3cc([N+](=O)[O-])ccc3n2C)CC1	1.5

Enquiry: Provide measured SILAC ratio Dpp7 value, entry: O=C(/C=C/c1cccnc1)NCCCCC1CCN(C(=O)c2ccccc2)CC1 [FK-866, reference compound]
Return: 1.0
